Biological target: T1, human TNFR2 (human, UniProt P20333 23-461)
T1 construct: whole, on cells
T1 sequence (looked up): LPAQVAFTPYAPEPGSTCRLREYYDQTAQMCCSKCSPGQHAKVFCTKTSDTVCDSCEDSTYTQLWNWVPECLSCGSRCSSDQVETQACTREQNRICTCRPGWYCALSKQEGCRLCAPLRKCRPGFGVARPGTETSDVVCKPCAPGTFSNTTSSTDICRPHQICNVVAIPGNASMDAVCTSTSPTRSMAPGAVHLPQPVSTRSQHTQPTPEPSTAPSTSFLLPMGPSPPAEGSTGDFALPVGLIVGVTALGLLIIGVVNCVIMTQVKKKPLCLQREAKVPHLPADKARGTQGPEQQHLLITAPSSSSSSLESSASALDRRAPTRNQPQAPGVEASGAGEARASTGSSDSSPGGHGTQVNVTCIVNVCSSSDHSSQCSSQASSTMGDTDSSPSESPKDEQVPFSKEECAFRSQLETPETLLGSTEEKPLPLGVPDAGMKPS
Assay: flow cytometry, HEK293 transfectants
reported property: binding result

36F3 (antibody, IgG4, V domains shown, also called 4891-1) VH: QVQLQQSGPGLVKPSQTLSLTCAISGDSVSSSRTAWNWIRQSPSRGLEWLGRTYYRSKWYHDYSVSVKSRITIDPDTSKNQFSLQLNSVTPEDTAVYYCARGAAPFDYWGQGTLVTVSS VL: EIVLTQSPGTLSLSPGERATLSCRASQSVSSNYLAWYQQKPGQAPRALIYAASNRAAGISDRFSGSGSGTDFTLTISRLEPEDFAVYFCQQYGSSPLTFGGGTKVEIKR    no binding
30A12 (antibody, IgG4, V domains shown, also called 4878-1) VH: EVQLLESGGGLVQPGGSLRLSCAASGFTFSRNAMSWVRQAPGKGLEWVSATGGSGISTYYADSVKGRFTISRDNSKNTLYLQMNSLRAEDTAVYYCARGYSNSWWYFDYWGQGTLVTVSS VL: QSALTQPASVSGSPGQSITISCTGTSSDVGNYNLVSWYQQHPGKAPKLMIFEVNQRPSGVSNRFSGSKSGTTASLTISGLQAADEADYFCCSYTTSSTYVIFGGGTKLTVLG    no binding
33H6 (antibody, IgG4, V domains shown, also called 4883-1) VH: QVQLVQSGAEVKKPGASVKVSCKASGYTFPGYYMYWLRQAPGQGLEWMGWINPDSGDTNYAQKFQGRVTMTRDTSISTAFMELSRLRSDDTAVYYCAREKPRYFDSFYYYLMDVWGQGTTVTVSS VL: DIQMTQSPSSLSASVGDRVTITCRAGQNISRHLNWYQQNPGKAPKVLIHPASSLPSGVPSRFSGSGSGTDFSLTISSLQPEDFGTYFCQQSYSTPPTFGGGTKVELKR    no binding
